- TARGET OR TEST SYSTEM: HCV NS3-4A serine protease (full-length NS3-4A protein) (Hepatitis C virus genotype 1a (isolate 1) (HCV))
- Sequence (P26664 1027-1657): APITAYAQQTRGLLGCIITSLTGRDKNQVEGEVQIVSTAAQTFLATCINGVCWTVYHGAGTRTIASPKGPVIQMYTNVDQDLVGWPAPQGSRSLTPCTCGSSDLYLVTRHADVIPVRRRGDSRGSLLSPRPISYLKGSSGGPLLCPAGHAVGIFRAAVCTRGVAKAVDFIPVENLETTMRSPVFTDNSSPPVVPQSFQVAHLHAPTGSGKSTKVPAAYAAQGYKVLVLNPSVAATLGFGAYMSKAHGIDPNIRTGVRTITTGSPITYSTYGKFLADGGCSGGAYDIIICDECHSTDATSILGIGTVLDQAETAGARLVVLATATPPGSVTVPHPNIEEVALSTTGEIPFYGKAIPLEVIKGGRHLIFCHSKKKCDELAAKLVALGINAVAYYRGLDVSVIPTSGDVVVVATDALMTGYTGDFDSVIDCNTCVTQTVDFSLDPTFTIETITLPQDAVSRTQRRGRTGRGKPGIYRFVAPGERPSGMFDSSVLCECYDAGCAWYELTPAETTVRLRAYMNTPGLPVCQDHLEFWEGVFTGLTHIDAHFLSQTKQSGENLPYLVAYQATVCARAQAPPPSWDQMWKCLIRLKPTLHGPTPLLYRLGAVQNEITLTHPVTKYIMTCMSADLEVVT
- Sequence (P26664 1658-1711 partner): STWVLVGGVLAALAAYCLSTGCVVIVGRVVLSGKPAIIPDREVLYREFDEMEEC
- MEASUREMENT NOTES: HCV NS3-4A protease assay
- STUDY CONDITIONS: strain HCV-1, fluorogenic peptide substrate, read-out: Protease assay Ex. 12 IC50
- Protocol: The inhibitory activity of certain compounds of Table A against HCV NS3-4A serine protease is determined in a homogenous assay using the full-length NS3-4A protein (genotype 1a, strain HCV-1) and a commercially available internally-quenched fluorogenic peptide substrate as described by Taliani, M., et al. 1996 Anal. Biochem. 240:60-67, which is incorporated by reference in its entirety.
VALUE KIND: pIC50
Give bare numbers, as −log10 of the molar value.

Examples from the recorded data:
- MOLECULE: "C=C[C@@H]1C[C@]1(NC(=O)[C@@H]1C[C@@]2(CN1C(=O)[C@@H](NC(=O)[C@@H](NC(=O)[C@@H]1CCCCN1C(C)C)C1CCCCC1)C(C)(C)C)C(C)(C)C21CCC1)C(=O)NS(=O)(=O)N(C)CCOC [Compound 56]"
  READING: 8.10
- MOLECULE: "C=C[C@@H]1C[C@]1(NC(=O)[C@@H]1C[C@@]2(CN1C(=O)[C@@H](NC(=O)[C@@H](NC(=O)c1cc(C)nn1CC)C1CCCCC1)C(C)(C)C)C(C)(C)C21CCC1)C(=O)NS(=O)(=O)N1CCCC1 [Compound 180]"
  READING: 7.52
- MOLECULE: "C=C[C@@H]1C[C@]1(NC(=O)[C@@H]1C[C@@]2(CN1C(=O)[C@@H](NC(=O)[C@@H](NC(=O)[C@@H]1CCCCN1C(C)C)C(C)(C)C)C(C)(C)C)C(C)(C)C21CCC1)C(=O)NS(=O)(=O)N1CCCC1 [Compound 3]"
  READING: 8.22
- MOLECULE: "C=C[C@@H]1C[C@]1(NC(=O)[C@@H]1C[C@@]2(CN1C(=O)[C@@H](NC(=O)[C@@H](NC(=O)c1cnccn1)C1CCOCC1)C(C)(C)C)C(C)(C)C21CCC1)C(=O)NS(=O)(=O)N1CCCC1 [Compound 43]"
  READING: 7.22
- MOLECULE: "C=C[C@@H]1C[C@]1(NC(=O)[C@@H]1C[C@@]2(CN1C(=O)[C@@H](NC(=O)[C@@H](NC(=O)[C@@H]1CCCCN1C(C)C)C1CCCCC1)C(C)(C)C)C(C)(C)C21CCC1)C(=O)NS(=O)(=O)N(C)C(C)C [Compound 108]"
  READING: 8.22
- MOLECULE: "C=C[C@@H]1C[C@]1(NC(=O)[C@@H]1C[C@@]2(CN1C(=O)[C@@H](NC(=O)[C@@H](NC(=O)[C@@H]1CCCCN1C(C)C)C1CCCCC1)C(C)(C)C)C(C)(C)C21CCC1)C(=O)NS(=O)(=O)NC(C)(C)C [Compound 169]"
  READING: 8.82
- MOLECULE: "CC[C@@H]1C[C@]1(NC(=O)[C@@H]1C[C@@]2(CN1C(=O)[C@@H](NC(=O)[C@@H](NC(=O)[C@H]1CCCCN1C(C)C)C1CCCCC1)C(C)(C)C)C(C)(C)C21CCC1)C(=O)NS(=O)(=O)N1CCCC1 [Compound 123]"
  READING: 8.10
- MOLECULE: "C=C[C@@H]1C[C@]1(NC(=O)[C@@H]1C[C@@]2(CN1C(=O)[C@@H](NC(=O)[C@@H](NC(=O)[C@@H]1CCCN1CC)C1CCCCC1)C(C)(C)C)C(C)(C)C21CCC1)C(=O)NS(=O)(=O)N1CCCC1 [Compound 39]"
  READING: 8.60
- MOLECULE: "C=C[C@@H]1C[C@]1(NC(=O)[C@@H]1C[C@@]2(CN1C(=O)[C@@H](NC(=O)[C@@H](NC(=O)[C@@H]1CCCCN1C(C)C)C1(C)CCCCC1)C1(C)CCCCC1)C(C)(C)C21CCC1)C(=O)NS(=O)(=O)N(CC)CC [Compound 160]"
  READING: 8.52
- MOLECULE: "C=C[C@@H]1C[C@]1(NC(=O)C1C[C@@]2(CN1C(=O)[C@@H](NC(=O)C1CCCNC1=O)C(C)(C)C)C(C)(C)C21CCC1)C(=O)NS(=O)(=O)N1CCCC1 (some centres unmarked) [Compound 78]"
  READING: 6.19

Give me pIC50 for each of these molecules, listed below.
1. C=C[C@@H]1C[C@]1(NC(=O)[C@@H]1C[C@@]2(CN1C(=O)[C@@H](NC(=O)[C@@H](NC(=O)c1cc(CC)nn1C)C1CCCCC1)C(C)(C)C)C(C)(C)C21CCC1)C(=O)NS(=O)(=O)N1CCCC1 [Compound 185]
2. C=C[C@@H]1C[C@]1(NC(=O)[C@@H]1C[C@@]2(CN1C(=O)[C@@H](NC(=O)[C@@H](NC(=O)c1cc(C)nn1C(C)(C)C)C1CCCCC1)C(C)(C)C)C(C)(C)C21CCC1)C(=O)NS(=O)(=O)N1CCCC1 [Compound 183]
3. C=C[C@@H]1C[C@]1(NC(=O)[C@@H]1C[C@@]2(CN1C(=O)[C@@H](NC(=O)[C@@H](NC(=O)[C@@H]1CCCCN1CCF)C1CCCCC1)C1CCOCC1)C(C)(C)C21CCC1)C(=O)NS(=O)(=O)N1CCCC1 [Compound 75]
4. C=C[C@@H]1C[C@]1(NC(=O)[C@@H]1C[C@@]2(CN1C(=O)[C@@H](NC(=O)[C@@H](NC(=O)[C@@H]1CCCCN1C(C)C)C1CCCCC1)C(C)(C)C)C(C)(C)C21CCC1)C(=O)NS(=O)(=O)N(CC)CC [Compound 174]
5. C=C[C@@H]1C[C@]1(NC(=O)[C@@H]1C[C@@]2(CN1C(=O)[C@@H](NC(=O)[C@@H](NC(=O)[C@@H]1CCCCN1CC(F)F)C1CCCCC1)C1CCOCC1)C(C)(C)C21CCC1)C(=O)NS(=O)(=O)N1CCCC1 [Compound 74]

1: 7.40; 2: 7.02; 3: 7.52; 4: 9.22; 5: 7.19

Give me pIC50 for each of these molecules, listed below.
1. C=C[C@@H]1C[C@]1(NC(=O)[C@@H]1C[C@@]2(CN1C(=O)[C@@H](NC(=O)[C@@H](NC(=O)[C@@H]1CCCN1CC)C1CCCCC1)C(C)(C)C)C(C)(C)C21CCC1)C(=O)NS(=O)(=O)N(CC)C(C)C [Compound 111]
2. C=C[C@@H]1C[C@]1(NC(=O)[C@@H]1C[C@@]2(CN1C(=O)[C@@H](NC(=O)[C@@H](NC(=O)[C@@H]1CCCN(CC)C1)C(C)(C)C)C(C)(C)C)C(C)(C)C21CCC1)C(=O)NS(=O)(=O)N1CCOCC1 [Compound 7]

1. 8.10
2. 6.35

Value source: patent US8613914B2
